target: SfurOBP11 (Sogatella furcifera); experiment: biochemical; type: binding; conditions: ligand concentration 16, replicate 2
Fluorescence intensity, fluorescence competitive binding assay, OBP11 listing for selected compounds.
Quick one: just the number, no unit, thanks!

Field: example entries. Status: answers known.
- Compound: "CCCCCCC=CCO"
  Quantitative Result: 25490
- Compound: "CCCCCCCCCCCCC=O"
  Quantitative Result: 25792
- Compound: "C/C(=C\\CO)CCC[C@H](C)CCC[C@H](C)CCCC(C)C"
  Quantitative Result: 21703
- Compound: "C=CC(C)(O)CCC=C(C)CCC=C(C)C (mixture of isomers)"
  Quantitative Result: 19544
- Compound: "CC1=CC[C@@H](C(C)(C)O)CC1"
  Quantitative Result: 17607

Could you now consider this next compound?
// lookup Fluorescence intensity, fluorescence competitive binding assay, OBP11 for O=Cc1ccccc1 18429

====

target: SfurOBP2 (Sogatella furcifera, UniProt V5T759); assay: biochemical; type: binding; settings: ligand concentration 14 (unit not given), replicate column 1 of 3
Sequence (V5T759 entry or part of it): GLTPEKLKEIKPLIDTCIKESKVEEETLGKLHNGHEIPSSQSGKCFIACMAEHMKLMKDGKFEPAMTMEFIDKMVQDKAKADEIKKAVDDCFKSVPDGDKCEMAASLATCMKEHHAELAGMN
Quantity: Fluorescence competitive binding assay, OBP2 (raw fluorescence reading)
When you answer, write just the number.

Recorded Fluorescence competitive binding assay, OBP2 (raw fluorescence reading), per entry:
- Compound: "C=CC(C)(O)CCC=C(C)CCC=C(C)C (mixture of isomers) [nerolidol]"
  Tested On: "SfurOBP2 (Sogatella furcifera, UniProt V5T759)"
  Quantitative Result: 12191
- Compound: "C=C1CC/C=C(\\C)CC[C@@H]2[C@@H]1CC2(C)C [β-caryophyllene]"
  Tested On: "SfurOBP2 (Sogatella furcifera, UniProt V5T759)"
  Quantitative Result: 16950

Which Fluorescence competitive binding assay, OBP2 (raw fluorescence reading) is listed for CC(=O)c1ccccc1 [acetophenone] ? 15270

Consider the compound shown here: OC1CCCCC1 [cyclohexanol] What is its recorded Fluorescence competitive binding assay, OBP2 (raw fluorescence reading)? 14815

Query: Fluorescence competitive binding assay, OBP2 (raw fluorescence reading); subject: C=C(C)C1CC=C(C)CC1 (single isomer, unassigned; (+)) [(+)-limonene] 13873

Which value of Fluorescence competitive binding assay, OBP2 (raw fluorescence reading) has been reported for CC/C=C\CCO [(Z)-3-hexenol] in the records? 14820

What Fluorescence competitive binding assay, OBP2 (raw fluorescence reading) value was documented for this compound, CCCCCCCCCCC [n-hendecane] ? 12583

====

biological target: SfurOBP2 (Sogatella furcifera, UniProt V5T759); assay: biochemical; type: binding; details: ligand concentration 20 (unit not given), replicate column 1 of 3
Lab note: anything with Fluorescence competitive binding assay, OBP2 (raw fluorescence reading) below 20000 is marked 1.0; values at 20000 or higher are marked 0.0.

# count of solved cases: 3
- Compound: "C=C(C)C1CC=C(C)CC1 (single isomer, unassigned; (+)) [(+)-limonene]"
  Class: 1.0
- Compound: "CCCCCCCCCCOCCCCCCCCCC"
  Class: 0.0
- Compound: "OC1CCCCC1"
  Class: 1.0

Record CCCCCC(C)=O : is its Fluorescence competitive binding assay, OBP2 (raw fluorescence reading) strictly below 20000? 1.0

# strict comparison: is reported Fluorescence competitive binding assay, OBP2 (raw fluorescence reading) < 20000? input = CCCCCCCCCCCCC=O 1.0

====

Target: SfurOBP2 (Sogatella furcifera, UniProt V5T759)
Assay: biochemical
Type: binding
Conditions: ligand concentration 20 (unit not given), replicate column 1 of 3
Experimental: Thirty-six rice odorants ([He et al., 2014]; [Wang et al., 2017]) and 1-N-phenyl-naphthylamine (1-NPN) were purchased from Sigma-Aldrich (St Louis, MO, USA). […] Fluorescence competitive binding assays were performed on Tecan Spark 10M (Tecan Group Ltd., Männedorf, Switzerland) with the F96 Black ELIAS Plate (Sangon) ([Khuhro et al., 2017]; [Liu et al., 2017]). The solutions were excited at 337 nm and emission spectra were recorded between 390 and 490 nm. […]
Entries annotated with measured Fluorescence competitive binding assay, OBP2 (raw fluorescence reading)
# print the numeric value only

The examples below pair each entry with its known result.
- Molecule: "CCCCCCCCCCCCCCCC"
  Tested On: "SfurOBP2 (Sogatella furcifera, UniProt V5T759)"
  Quantitative Result: 13545
- Molecule: "CCCCCCCCCCCCCC"
  Tested On: "SfurOBP2 (Sogatella furcifera, UniProt V5T759)"
  Quantitative Result: 26164

// query Fluorescence competitive binding assay, OBP2 (raw fluorescence reading) value for entry CCCCCCCCCCCCO 13087

Entry C=CC(C)(O)CCC=C(C)C (stereo not drawn) has what Fluorescence competitive binding assay, OBP2 (raw fluorescence reading)? 14349

// query Fluorescence competitive binding assay, OBP2 (raw fluorescence reading) value for entry CCCCCCC=CCO 16047

Could you tell me which Fluorescence competitive binding assay, OBP2 (raw fluorescence reading) is on file for CCC/C=C/CO [(E)-2-hexenol] ? 11621

Looking for the measured Fluorescence competitive binding assay, OBP2 (raw fluorescence reading) of CCCCCCCCCCCCCCCCCC , can you help? 24631

For the molecule shown here, CCCCCCCCCCCCCCCC(=O)OC [MH(methyl hexadecanoate)] , give the reported Fluorescence competitive binding assay, OBP2 (raw fluorescence reading). 72726

Item C/C(=C\CO)CCC[C@H](C)CCC[C@H](C)CCCC(C)C has what recorded Fluorescence competitive binding assay, OBP2 (raw fluorescence reading)? 20399

May I ask what Fluorescence competitive binding assay, OBP2 (raw fluorescence reading) has been recorded for C=CC(C)(O)CCC=C(C)CCC=C(C)C (mixture of isomers) ? 11544

Which Fluorescence competitive binding assay, OBP2 (raw fluorescence reading) value is on record for CCCCCCCCC=O ? 16296

Fill in: Fluorescence competitive binding assay, OBP2 (raw fluorescence reading) of CC(C)COC(=O)CCCCC(=O)OCC(C)C [DA(diisobutyl adipate)] is ___ 13793

====

target: SfurOBP2 (Sogatella furcifera); assay: biochemical; format: binding; settings: ligand concentration 6 (unit not given), replicate column 2 of 3
Quantity: Fluorescence competitive binding assay, OBP2 (raw fluorescence reading)
API note: the answer field is a bare number with no unit suffix.

- Compound: "CCCCCCCCCCC"
  Quantitative Result: 14028
- Compound: "CCCCCCC=CCO"
  Quantitative Result: 24429
- Compound: "CCCCCCCCCCCCC=O"
  Quantitative Result: 18194
- Compound: "O=Cc1ccccc1"
  Quantitative Result: 14529
- Compound: "CC/C=C\\CCO [(Z)-3-hexenol]"
  Quantitative Result: 18769

Fill blank: measured Fluorescence competitive binding assay, OBP2 (raw fluorescence reading) of the compound CC(=O)c1ccccc1 is ____. 17836

// lookup Fluorescence competitive binding assay, OBP2 (raw fluorescence reading) for CCC/C=C/CO [(E)-2-hexenol] 16314

Look up Fluorescence competitive binding assay, OBP2 (raw fluorescence reading): CCCCCCCCCCCCCC 21064

What value of measured Fluorescence competitive binding assay, OBP2 (raw fluorescence reading) is listed for CCCCCCCCC=O ? 22972

Which Fluorescence competitive binding assay, OBP2 (raw fluorescence reading) is listed for CCCCCCCCCCCCCCCC ? 14373

====

target: SfurOBP2 (Sogatella furcifera, UniProt V5T759); test: biochemical; assay type: binding; settings: ligand concentration 8 (unit not given), replicate column 1 of 3
Reported Fluorescence competitive binding assay, OBP2 (raw fluorescence reading) is given for each of the following molecules.
Form: value (number only, do not type unit).

See these solved cases before continuing.
- Molecule: "CC(=O)/C=C/C1=C(C)CCCC1(C)C [β-Ionone]"
  Tested On: "SfurOBP2 (Sogatella furcifera, UniProt V5T759)"
  Quantitative Result: 17627
- Molecule: "CCCCCCCCCCCCCCCC(=O)OC [MH(methyl hexadecanoate)]"
  Tested On: "SfurOBP2 (Sogatella furcifera, UniProt V5T759)"
  Quantitative Result: 39886
- Molecule: "CC/C=C\\CCO [(Z)-3-hexenol]"
  Tested On: "SfurOBP2 (Sogatella furcifera, UniProt V5T759)"
  Quantitative Result: 18896
- Molecule: "CCCCCCCCCCCCCC [n-tetradecane]"
  Tested On: "SfurOBP2 (Sogatella furcifera, UniProt V5T759)"
  Quantitative Result: 20311

Now examine the next entry.
Would you mind telling me what Fluorescence competitive binding assay, OBP2 (raw fluorescence reading) value was observed for C/C(=C\CO)CCC[C@H](C)CCC[C@H](C)CCCC(C)C [plant alcohol] ? 19867

====

Biological target: SfurOBP11 (Sogatella furcifera, UniProt V5T6E3)
Sequence (V5T6E3 entry or part of it): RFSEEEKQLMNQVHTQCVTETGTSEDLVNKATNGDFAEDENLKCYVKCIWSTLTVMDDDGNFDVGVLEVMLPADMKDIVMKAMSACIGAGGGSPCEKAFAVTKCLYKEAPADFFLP
Test: biochemical
Format: binding
Conditions: ligand concentration 16, replicate 2
Method: Thirty-six rice odorants ([He et al., 2014]; [Wang et al., 2017]) and 1-N-phenyl-naphthylamine (1-NPN) were purchased from Sigma-Aldrich (St Louis, MO, USA). […] Fluorescence competitive binding assays were performed on Tecan Spark 10M (Tecan Group Ltd., Männedorf, Switzerland) with the F96 Black ELIAS Plate (Sangon) ([Khuhro et al., 2017]; [Liu et al., 2017]). The solutions were excited at 337 nm and emission spectra were recorded between 390 and 490 nm. […]
A collection of compounds and their measured Fluorescence intensity, fluorescence competitive binding assay, OBP11
Just the number, please, no unit attached.

Example results:
- Compound: "CC/C=C\\CCO [(Z)-3-hexenol]"
  Tested On: "SfurOBP11 (Sogatella furcifera, UniProt V5T6E3)"
  Quantitative Result: 15961
- Compound: "CCCCCCCC=O [octanal]"
  Tested On: "SfurOBP11 (Sogatella furcifera, UniProt V5T6E3)"
  Quantitative Result: 24311
- Compound: "CCCCCCCCCCCCCCCC [n-hexadecane]"
  Tested On: "SfurOBP11 (Sogatella furcifera, UniProt V5T6E3)"
  Quantitative Result: 22169
- Compound: "CCC/C=C/CO [(E)-2-hexenol]"
  Tested On: "SfurOBP11 (Sogatella furcifera, UniProt V5T6E3)"
  Quantitative Result: 20050

Next, consider the following compound.
Tell me the measured Fluorescence intensity, fluorescence competitive binding assay, OBP11 of OC1CCCCC1 [cyclohexanol] , please. 22093
